Listing of recorded inhibition by entry.
biological target: Glutamate NMDA receptor; GRIN1/GRIN2A (Homo sapiens) (UniProt Q05586+Q12879); experiment: Antagonist activity at wild type NR1/NR2A receptor expressed in Xenopus oocytes assessed as inhibition of agonist-induced current amplitude at 10 uM by two-electrode voltage-clamp method; format: functional, cell-based; conditions: Oocyte
Give the number; % is assumed, so skip it.

These solved cases illustrate the format of a correct answer.
# smiles-structure, inhibition (%)
data = [
    ("O=C1N=C(N2CCN(Cc3ccccc3)CC2)S/C1=C\\c1ccc(O)cc1", 4),
    ("O=C1N=C(N2CCN(c3ccccc3)CC2)S/C1=C\\c1ccc(O)cc1", 25),
    ("O=C1N=C(N2CCN(Cc3ccccc3)CC2)S/C1=C/c1ccc(O)cc1", 6),
]

# input inhibition of O=C1N=C(N2CCN(Cc3ccccc3)CC2)S/C1=C\c1ccc(O)cc1O on Glutamate NMDA receptor; GRIN1/GRIN2A (Homo sapiens) (UniProt Q05586+Q12879)?
# output 6

Value source: ChEMBL document CHEMBL1221329
